target-desc: D(4) dopamine receptor (Homo sapiens)
Sequence (P21917 whole entry): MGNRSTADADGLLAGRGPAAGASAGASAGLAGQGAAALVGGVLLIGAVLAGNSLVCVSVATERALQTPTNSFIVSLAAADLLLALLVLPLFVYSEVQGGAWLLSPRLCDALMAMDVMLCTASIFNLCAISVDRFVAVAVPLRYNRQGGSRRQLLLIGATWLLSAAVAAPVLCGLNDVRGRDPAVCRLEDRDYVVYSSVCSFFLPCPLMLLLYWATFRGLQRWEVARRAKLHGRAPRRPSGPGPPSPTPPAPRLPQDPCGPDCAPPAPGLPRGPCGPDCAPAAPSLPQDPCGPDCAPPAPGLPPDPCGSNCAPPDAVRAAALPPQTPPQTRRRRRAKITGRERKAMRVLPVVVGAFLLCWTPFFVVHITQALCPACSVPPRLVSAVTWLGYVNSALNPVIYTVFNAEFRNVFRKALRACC
assay-notes: Displacement of [3H]A-369508 from human recombinant D4.4 receptor expressed in HEK293 cell membrane
endpoint-name: Ki (nM)
Give the number; nM is assumed, so skip it.

Request: Which Ki value belongs to CO/N=C(\c1ccc(Cl)cc1)C(O)CN1CCN(c2ccccn2)CC1 (stereo unspecified) ?
Response: 113

Request: Would you kindly share the measured Ki for "CO/N=C(\CCN1CCN(c2ccccn2)CC1)c1cc(F)cc(F)c1" ?
Response: 110

Request: Requested field: Ki. Item: CO/N=C(/c1ccc(Cl)cc1)C(CNOC)CN1CCN(c2ccccn2)CC1 (stereo unspecified)
Response: 120

Request: Please report the recorded Ki for "CO/N=C(\CCN1CCC(c2ccccn2)CC1)c1ccc(Cl)cc1" .
Response: 134

Request: // Ki lookup, key: "CO/N=C(/CCN1CCC(c2ccccn2)CC1)c1ccc(Cl)cc1"
Response: 90

Request: Record request: Ki value, item "CO/N=C(/CCN1CCN(c2ccccn2)CC1)c1cccc(C#N)c1"
Response: 20.1

Request: Name the reported Ki value associated with the compound "CO/N=C(\CCN1CCN(c2ccccn2)CC1)c1cccc(Cl)c1"
Response: 13.5

Request: If you can, please state the reported Ki value of "CO/N=C(/CCN1CCN(c2ccccn2)CC1)c1ccc(F)cc1" .
Response: 53.3

Request: Endpoint output: Ki of "CO/N=C(\CCN1CCN(c2ccccn2)CC1)c1ccccc1C" . Value?
Response: 11.4

Request: Dear colleague, I am looking for the recorded Ki of the following compound: CO/N=C(\CCN1CCN(c2ccccn2)CC1C)c1ccc(Cl)cc1 (stereo unspecified)
Response: 67.1

Request: Returns the measured Ki for the input compound. Input: "CO/N=C(\CCN1CCN(c2ccccn2)CC1)c1ccc(Cl)c(Cl)c1"
Response: 6.4
